For each entry below, report its GI50 value.
Tested on: HCT-116
ASSAY_OVERVIEW: Antiproliferative activity against human HCT-116 cells assessed as growth inhibition incubated for 3 days
Assay type: functional
TEST_CONTEXT: HCT-116, 72 h, time 3 day

query: Note GI50 for the compound shown: "CC(=O)O[C@@H](C)/C=C\C(=O)N[C@@H]1C[C@H](C)[C@H](C/C=C(C)/C=C/[C@H]2OC(C)(C)C[C@@]3(CO3)[C@@H]2O)O[C@@H]1C"
result: 1.1 nM

query: Output measured GI50 for this item: "COCO[C@@H](C)/C=C\C(=O)N[C@@H]1C[C@H](C)[C@H](C/C=C(C)/C=C/[C@H]2OC(C)(C)C[C@@]3(CO3)[C@@H]2O)O[C@@H]1C"
result: 3.1 nM

query: Output GI50 of "COCO[C@@H](C)/C=C\C(=O)N[C@@H]1C[C@H](C)[C@H](C/C=C(C)/C=C/[C@@H](O)[C@H]2OC(C)(C)C[C@@]23CO3)O[C@@H]1C"
result: 3400 nM

query: Hello, please tell me recorded GI50 for this one: "COc1cccc2c1C(=O)c1c(O)c3c(c(O)c1C2=O)C[C@@](O)(C(=O)CO)C[C@@H]3O[C@H]1C[C@H](N)[C@H](O)[C@H](C)O1"
result: 77 nM
